B1: Far upstream element-binding protein 2, residues 142 to 214; numbered along this chain, Q92945 (parent)
chain: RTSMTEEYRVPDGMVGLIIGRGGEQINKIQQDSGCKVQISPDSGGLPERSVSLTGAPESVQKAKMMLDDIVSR

- Variants of: B1
- protocol notes: abundance fitness (aPCA) (normalised: wild type 0, dead -1); higher = more abundant; growth selection in yeast, the domain comes from the species named
- recorded conditions: Homo sapiens
Mark FALSE for abundance fitness values under -0.3, and TRUE for everything at or above.

I'd appreciate it if you could say whether `D32W` has abundance fitness at least equal to -0.3.
TRUE

API: above_or_equal(metric=abundance fitness, cutoff=-0.3) for item `V51T`
FALSE

Evaluate `R49P` : abundance fitness at minimum -0.3?
TRUE

Has `C35M` a recorded abundance fitness greater than or equal to -0.3?
FALSE

Exam item: decide whether the reported abundance fitness for `L46P` is at least -0.3.
TRUE

Say whether `G44I` shows abundance fitness of -0.3 or more.
FALSE

I'd appreciate it if you could say whether `E24H` has abundance fitness at least equal to -0.3.
TRUE

Given `T54R` , state whether its abundance fitness is at least -0.3.
TRUE

Kindly determine if abundance fitness recorded for `P41F` is above or exactly -0.3.
TRUE

Tell me whether abundance fitness is at least -0.3 here: `I26P`
FALSE
